Target: T1, recombinant human CD63 extracellular loop 2 expressed with a C-terminal Myc-Myc-hexahistidine (human)
T1 construct: also called hCD63 EC loop 2-MMH; human CD63 EC loop 2-MMH
T1 sequence (chain, as listed by the source limits assumed): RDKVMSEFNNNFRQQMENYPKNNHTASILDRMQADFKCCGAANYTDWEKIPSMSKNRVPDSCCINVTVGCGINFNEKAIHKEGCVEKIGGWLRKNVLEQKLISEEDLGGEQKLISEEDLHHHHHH
Assay: SPR Biacore, mAb captured, 37C
readout: pKd
Note on pKd: it is the negative log10 of concentration, concentration in mol/L.

H2M12454N (antibody, V domains shown, also called H2bM12454N) VH: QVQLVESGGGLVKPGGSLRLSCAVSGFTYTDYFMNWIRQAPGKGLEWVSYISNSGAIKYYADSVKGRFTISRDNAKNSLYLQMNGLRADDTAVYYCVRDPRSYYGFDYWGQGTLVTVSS VL: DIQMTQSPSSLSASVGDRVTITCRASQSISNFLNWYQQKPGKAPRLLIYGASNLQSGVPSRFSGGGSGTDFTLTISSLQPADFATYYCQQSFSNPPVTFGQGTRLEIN
7.97

Which measured pKd value corresponds to H1M12362N (antibody, V domains shown) VH: QVQLVESGGGLVKPGGSLRLSCAASGFIFSDYYINWIRQAPGKGLEWVSYTSSSGSTTYYEDSVKGRFTMSRDNARNLVYLQMNSLRAEDTAAYYCVRDLRYNDGLDVWGQGTTVTVSS VL: DILLTQSPSSLSASVGDRVTITCRASQSIRTYLNWYQQKPGRAPKLLVYAASSLQSGVPSRFSGSGSGTDFTLTISSLQPEDFATYFCQQSYDNPPITFGQGTRLAIK ?
7.71
